Tested on: ZR-75-1 cells
assay.notes: ZR-75-1 cell proliferation assay (CellTiter-Glo)
Type: cell-based
details: Homo sapiens, ZR-75-1, 240 h, total culture period of 10 days, read-out: ZR-75-1 Proliferation Inhibition IC50
Listing of recorded IC50 by entry.
Value expressed in nM; do not type the unit.

Worked cases, answers included:
INSERT INTO results (compound, readout_value) VALUES
  ('[2H]C([2H])([2H])Oc1cc(Cn2cccn2)cc2onc(NS(=O)(=O)c3c(OC)ccc4c3OCCCO4)c12', 1),
  ('COc1ccc2c(c1S(=O)(=O)Nc1noc3cc(Cn4cccn4)c4c(c13)OCC4)OCC21CC1', 0.4),
  ('COc1ccc2c(c1S(=O)(=O)Nc1noc3cc(Cn4cccn4)c(F)c(OC)c13)OCC21CC1', 0.3),
  ('COc1ccc2c(c1S(=O)(=O)Nc1noc3cc(Cn4cccn4)c(OC(F)F)cc13)OCCCO2', 14.2),
  ('CCc1c(Cn2cccn2)cc2onc(NS(=O)(=O)c3c(OC)ccc4c3OCC3CC43)c2c1OC (stereo not shown)', 11.5),
  ('COc1cc2c(NS(=O)(=O)c3c(OC)ccc4c3OCCCO4)noc2cc1Cn1cccn1', 0.6);

Given the compound COc1cc2c(NS(=O)(=O)c3c(OC)ccc4c3OCC3CC43)noc2cc1Cn1cccn1 (single isomer, unassigned) , what is its reported IC50?
0.03

What does the data say about its IC50? Entry: COc1ccc2c(c1S(=O)(=O)Nc1noc3cc(Cn4cccn4)c(C)cc13)OCCCO2
3.7

Fill in the blank: the reported IC50 of COc1ccc2c(c1S(=O)(=O)Nc1noc3cc(Cn4cccn4)c(OC)c(C)c13)OCC1CC21 (stereo not shown) is ____.
1.6

// returns reported IC50 for input COc1cc(Cn2cccn2)cc2onc(NS(=O)(=O)c3cccc4c3OCCCO4)c12
6.7

What value of IC50 has been reported for the following compound? COc1ccc2c(c1S(=O)(=O)Nc1noc3cc(Cn4cccn4)c(F)c(OC)c13)OCCCO2
0.6

Requested field: IC50. Item: COc1cc2c(cc1S(=O)(=O)Nc1noc3cc(Cn4cccn4)cc(OC)c13)OCCOC2
4.2

Query: IC50; subject: COc1ccc2c(c1S(=O)(=O)Nc1noc3cc(Cn4cccn4)c(F)c(OC)c13)OCC1CC21 (single isomer, unassigned) [Compound 30-P1]
0.08

For the compound shown here, COc1ccc2c(c1S(=O)(=O)Nc1noc3cc(Cn4cccn4)c4c(c13)OCCC4)OCCCO2 , give the reported IC50.
0.5

Dear colleague, I am looking for the recorded IC50 of the following compound: COc1ccc2c(c1S(=O)(=O)Nc1noc3cc(Cn4cccn4)c4c(c13)OCC4)OCC1CC21 (stereo not shown)
0.4

What IC50 value was documented for this compound, CCOc1cc2c(NS(=O)(=O)c3c(OC)ccc4c3OCCCO4)noc2cc1Cn1cccn1 ?
22.1

====

KAT6A (Homo sapiens, UniProt Q92794) data, read-out IC50
Sequence (Q92794 488-778 limits assumed): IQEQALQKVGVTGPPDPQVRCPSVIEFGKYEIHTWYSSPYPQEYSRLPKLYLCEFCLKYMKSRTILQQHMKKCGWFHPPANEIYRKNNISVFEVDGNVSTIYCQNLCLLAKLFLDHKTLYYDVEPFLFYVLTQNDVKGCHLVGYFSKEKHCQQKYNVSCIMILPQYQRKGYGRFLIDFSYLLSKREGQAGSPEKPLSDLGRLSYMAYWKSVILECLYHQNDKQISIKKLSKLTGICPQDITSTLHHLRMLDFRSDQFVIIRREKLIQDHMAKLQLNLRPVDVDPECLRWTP
Answer with a number only, understood to be in nM.

Field: example entries. Status: answers known.
INSERT INTO assay_data (compound, readout_kind, readout_value) VALUES
  ('COc1cc2c(NS(=O)(=O)c3c(OC)ccc4c3OCC3CC43)noc2cc1Cn1cccn1 (single isomer, unassigned) [Compound 33]', 'IC50', 1.1),
  ('COc1ccc2c(c1S(=O)(=O)Nc1noc3cc(Cn4cccn4)c(C4CC4)cc13)OCCCO2 [Compound 14]', 'IC50', 1.4),
  ('COc1ccc2c(c1S(=O)(=O)Nc1noc3cc(Cn4cccn4)c4c(c13)OCC4)OCCCO2 [Compound 35]', 'IC50', 4.3);

I'd like to know its IC50. The compound in question is COc1ccc2c(c1S(=O)(=O)Nc1noc3cc(Cn4cccn4)cc(OC)c13)OC[C@@H]1C[C@H]21 [Compound 5-P2]
1.1

Which IC50 is listed for COc1ccc2c(c1S(=O)(=O)Nc1noc3cc(Cn4cccn4)c(F)c(OC)c13)OCCCO2 [Compound 29] ?
3

Data request, read-out IC50, for COc1ccc2c(c1S(=O)(=O)Nc1noc3cc(Cn4cccn4)cc(OC)c13)OC[C@H]1C[C@@H]21 [Compound 5-P1]
2.5

# IC50 lookup, item [2H]C([2H])([2H])Oc1cc(Cn2cccn2)cc2onc(NS(=O)(=O)c3c(OC)ccc4c3OC[C@@H]3C[C@H]43)c12 [Compound 45]
0.6

For COc1ccc2c(c1S(=O)(=O)Nc1noc3cc(Cn4cccn4)c4c(c13)OCC4)OCC21CC1 [Compound 36] , what is its reported IC50?
1.7

Item under review: COc1ccc2c(c1S(=O)(=O)Nc1noc3cc(Cn4cccn4)c(OC)c(C)c13)OCC1CC21 (centres unmarked) [Compound 40] . Reported IC50?
1.7

Requested read-out: IC50. Entry: CCc1c(Cn2cccn2)cc2onc(NS(=O)(=O)c3c(OC)ccc4c3OCCCO4)c2c1OC [Compound 26]
4.7

# input compound: COc1cc2c(cc1S(=O)(=O)Nc1noc3cc(Cn4cccn4)cc(OC)c13)C1CC1CO2 (centres unmarked) [Compound 6] ; wanted: its IC50
1.3

// returns reported IC50 for input COc1ccc2c(c1S(=O)(=O)Nc1noc3cc(Cn4cccn4)c(F)cc13)OCCCO2 [Compound 12]
6.5

====

Test system: ZR-75-1 cells
assay.notes: ZR-75-1 cell proliferation assay (CellTiter-Glo)
Assay type: cell-based
details: Homo sapiens, ZR-75-1, 240 h, total culture period of 10 days, read-out: ZR-75-1 Proliferation Inhibition IC50
pIC50: −log10 of the molar value.
Could you label it rule met if measured pIC50 is 9 or higher, and rule not met otherwise?

For orientation, consider the following solved cases.
INSERT INTO measurements (compound, target, assigned_category) VALUES
  ('COc1ccc2c(c1S(=O)(=O)Nc1noc3cc(Cn4cccn4)c(OC)c(C)c13)OCC21CC1', 'ZR-75-1 cells', 'rule not met'),
  ('COc1ccc2c(c1S(=O)(=O)Nc1noc3cc(Cn4cccn4)cc(OC)c13)OCCCN2C', 'ZR-75-1 cells', 'rule not met'),
  ('COc1ccc2c(c1S(=O)(=O)Nc1noc3cc(Cn4cccn4)cc(OC)c13)OC1CC21 (stereo not drawn)', 'ZR-75-1 cells', 'rule met'),
  ('COc1ccc2c(c1S(=O)(=O)Nc1noc3cc(Cn4cccn4)c(F)c(OC)c13)OCC1CC21 (stereo not drawn) [Compound 30]', 'ZR-75-1 cells', 'rule met'),
  ('COc1ccc2c(c1S(=O)(=O)Nc1noc3cc(Cn4cccn4)c(C4CC4)cc13)OCCCO2', 'ZR-75-1 cells', 'rule not met');

Record COc1ccc2c(c1S(=O)(=O)Nc1noc3cc(Cn4cccn4)cc(OC)c13)OC[C@H]1C[C@@H]21 [Compound 5-P1] ; criterion: pIC50 no lower than 9. Met?
rule met

Item CCc1c(Cn2cccn2)cc2onc(NS(=O)(=O)c3c(OC)ccc4c3OCC43CC3)c2c1OC with pIC50 of 9 or above?
rule not met

Record COc1ccc2c(c1S(=O)(=O)Nc1noc3cc(Cn4cccn4)cc(OC)c13)OC[C@@H]1C[C@H]21 [Compound 5-P2] ; criterion: pIC50 no lower than 9. Met?
rule met

====

Listed here: molecules with reported IC50 for KAT6A (Homo sapiens, UniProt Q92794).
Express your answer in nM, writing the number without its unit.

INSERT INTO results (molecule, readout_kind, value_units, readout_value) VALUES
  ('COc1ccc2c(c1S(=O)(=O)Nc1noc3cc(Oc4nccs4)cc(OC)c13)OC[C@@H]1C[C@H]21', 'IC50', 'nM', 0.8);

May I ask what IC50 has been recorded for COc1ccc2c(c1S(=O)(=O)Nc1noc3cc(Cn4cccn4)cc(OC)c13)OC1CC21 (centres unmarked) ?
1.7

// returns reported IC50 for input COc1ccc2c(c1S(=O)(=O)Nc1noc3cc(Cn4cccn4)cc(OC)c13)OCCCO2
3.2

What does the record list as IC50 for COc1ccc2c(c1S(=O)(=O)Nc1noc3cc(Cn4cccn4)c(F)c(OC)c13)OCC1CC21 (single isomer, unassigned) [Compound 30-P1] ?
1.4

Consider the molecule shown here: COc1ccc2c(c1S(=O)(=O)Nc1noc3cc(Cn4cccn4)cc(OC)c13)OCC(F)(F)CO2 What is its recorded IC50?
2.5

====

System: ZR-75-1 cells
assay.notes: ZR-75-1 cell proliferation assay (CellTiter-Glo)
Type: cell-based
details: Homo sapiens, ZR-75-1, 240 h, total culture period of 10 days, read-out: ZR-75-1 Proliferation Inhibition IC50
Here, each record is paired with measured pIC50 data.
Conceptually, pIC50 converts a concentration in mol/L into minus its log10.

INSERT INTO results (molecule, readout_value) VALUES
  ('COc1ccc2c(c1S(=O)(=O)Nc1noc3cc(Cn4cccn4)c(F)cc13)OCCCO2 [Compound 12]', 8.85);

State the recorded pIC50 for this entry: COc1cc2c(cc1S(=O)(=O)Nc1noc3cc(Cn4cccn4)cc(OC)c13)C1CC1CO2 (stereo not shown) [Compound 6]
9.22

Give its pIC50 value. Item: [2H]C([2H])([2H])Oc1cc(Cn2cccn2)cc2onc(NS(=O)(=O)c3c(OC)ccc4c3OC[C@@H]3C[C@H]43)c12 [Compound 45]
10.40

Value lookup for pIC50; key = COc1ccc2c(c1S(=O)(=O)Nc1noc3cc(Cn4cccn4)cc(OC)c13)OCCOC2 [Compound 10]
8.85

Entry [2H]C([2H])(c1cc(OC)c2c(NS(=O)(=O)c3c(OC)ccc4c3OCCCO4)noc2c1)n1cccn1 [Compound 43] : reported pIC50 = ?
9.00

I am curious: what pIC50 value has been reported for COc1ccc2c(c1S(=O)(=O)Nc1noc3cc(Cn4cccn4)c4c(c13)OCC4)OCCCO2 [Compound 35] ?
8.48

pIC50 for COc1ccc2c(c1S(=O)(=O)Nc1noc3cc(Cn4cccn4)cc(OC)c13)OCC1CC21 (stereo not shown) [Compound 5] ?
9.70
